System: KYSE-70 esophageal cancer cell line
test: Cell growth inhibition of KYSE-70 (Sulforhodamine B)
Type: cell-based
details: Homo sapiens; KYSE-70, 72 hours; read-out: KYSE70 GI50
metric: GI50

> print(dat)
                      smiles.representation    value.observed
1  COc1cc(-c2cc(N3CCC(CC(=O)O)CC3)n3ncnc(N)c23)ccc1NC(=O)OC(C)(C)C        > 10000 nM
2  COc1cc(-c2cc(N3CCC(N(C)C)CC3)n3ccnc(N)c23)ccc1NC(=O)OC(C)(C)C          ≤ 100 nM
3  COc1cc(-c2cc(N3CCN(CCN(C)C)CC3)n3ncnc(N)c23)ccc1NC(=O)OC(C)(C)C  1000 to 10000 nM
4  COc1cc(-c2cc(N3CCC(N)CC3)n3ncnc(N)c23)ccc1NC(=O)OC(C)(C)C    100 to 1000 nM
5  COc1cc(-c2cc(N3CCC4(CCCN4C)CC3)n3ncnc(N)c23)ccc1NC(=O)OC(C)(C)C    100 to 1000 nM
6  COc1cc(-c2cc(N3CC4(CC(N(C)C)C4)C3)n3ncnc(N)c23)ccc1NC(=O)OC(C)(C)C    100 to 1000 nM
7  CNC1CCN(c2cc(-c3ccc(NC(=O)OC(C)(C)C)c(OC)c3)c3c(N)nccn23)CC1    100 to 1000 nM
